Test Target: T1, human CD22-ECD-His protein (human, UniProt P20273 20-687)
T1 construct: Recombinant, from HEK293E cells; also called hCD22-ECD-His; human CD22-His protein; not shown: His tag
T1 sequence: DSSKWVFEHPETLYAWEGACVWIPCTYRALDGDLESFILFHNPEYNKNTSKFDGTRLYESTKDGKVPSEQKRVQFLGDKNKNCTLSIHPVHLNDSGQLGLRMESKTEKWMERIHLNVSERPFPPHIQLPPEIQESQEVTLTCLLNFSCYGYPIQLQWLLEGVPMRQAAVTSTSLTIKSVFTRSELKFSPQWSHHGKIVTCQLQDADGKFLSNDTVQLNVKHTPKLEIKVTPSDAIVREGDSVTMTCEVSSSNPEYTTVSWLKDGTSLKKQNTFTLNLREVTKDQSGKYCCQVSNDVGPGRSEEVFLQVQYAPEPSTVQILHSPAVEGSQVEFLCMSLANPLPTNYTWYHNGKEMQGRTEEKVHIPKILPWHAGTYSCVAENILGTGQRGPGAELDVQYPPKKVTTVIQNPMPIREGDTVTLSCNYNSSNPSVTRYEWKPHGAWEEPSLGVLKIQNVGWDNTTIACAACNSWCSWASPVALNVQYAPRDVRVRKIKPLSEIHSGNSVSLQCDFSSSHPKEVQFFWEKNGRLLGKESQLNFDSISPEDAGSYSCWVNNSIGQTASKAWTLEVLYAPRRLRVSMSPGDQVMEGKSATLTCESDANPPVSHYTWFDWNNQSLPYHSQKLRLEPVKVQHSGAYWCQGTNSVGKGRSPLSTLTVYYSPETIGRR
Test Protocol: SPR (Biacore), antibody captured on Protein A chip, CD22-ECD-His in solution
Assay Endpoint: kon (M⁻¹ s⁻¹)

>  <Binder>
F1.172.13 (antibody, human IgG1, kappa, V domains shown, Chimeric IgG1 kappa) VH: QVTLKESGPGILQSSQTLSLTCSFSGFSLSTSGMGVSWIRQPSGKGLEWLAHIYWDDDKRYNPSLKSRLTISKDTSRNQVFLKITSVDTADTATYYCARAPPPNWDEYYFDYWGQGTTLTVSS VL: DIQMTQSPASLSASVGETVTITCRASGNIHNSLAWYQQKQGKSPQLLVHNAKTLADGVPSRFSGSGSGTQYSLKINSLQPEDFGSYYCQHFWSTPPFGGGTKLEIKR

>  <Assay Endpoint>
kon

>  <Result Unit>
M⁻¹ s⁻¹

>  <Observed Measurement>
306000

$$$$
>  <Binder>
F1.62.10 (antibody, human IgG1, kappa, V domains shown, Chimeric IgG1 kappa) VH: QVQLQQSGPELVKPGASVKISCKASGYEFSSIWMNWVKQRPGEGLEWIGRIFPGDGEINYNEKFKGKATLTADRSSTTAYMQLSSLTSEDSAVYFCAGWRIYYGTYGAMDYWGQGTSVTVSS VL: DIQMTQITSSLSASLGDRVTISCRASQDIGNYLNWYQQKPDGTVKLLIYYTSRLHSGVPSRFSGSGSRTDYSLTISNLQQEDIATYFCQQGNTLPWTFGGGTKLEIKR

>  <Assay Endpoint>
kon

>  <Result Unit>
M⁻¹ s⁻¹

>  <Observed Measurement>
13600

$$$$
>  <Binder>
F2.180.16 (antibody, human IgG1, lambda, V domains shown, Chimeric IgG1 lambda) VH: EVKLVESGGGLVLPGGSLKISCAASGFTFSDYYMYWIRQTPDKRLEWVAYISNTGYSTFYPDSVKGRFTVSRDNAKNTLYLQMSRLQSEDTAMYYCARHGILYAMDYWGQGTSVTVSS VL: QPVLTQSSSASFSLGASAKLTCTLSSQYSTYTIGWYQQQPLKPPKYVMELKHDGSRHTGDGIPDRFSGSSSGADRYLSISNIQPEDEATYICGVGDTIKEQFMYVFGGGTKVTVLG

>  <Assay Endpoint>
kon

>  <Result Unit>
M⁻¹ s⁻¹

>  <Observed Measurement>
8450

$$$$
